I'd appreciate it if you could supply pKi values for the items below.
# system-tested: Gastrin/cholecystokinin type B receptor (Cavia porcellus)
# assay-comment: In vitro inhibition of binding of [3H]pCCK-8 against Cholecystokinin type B receptor of guinea pig cerebral cortex membranes
Answers are plain numbers, as −log10 of the molar value.

>  <molecule>
O=C(Nc1cccc(O)c1)NC1C(=O)N(CC23C[C@H]4C[C@@H](C2)C[C@@H](C3)C4)c2ccccc2N(c2ccccc2)C1=O (stereo partly specified)

>  <system-tested>
Gastrin/cholecystokinin type B receptor (Cavia porcellus)

>  <pKi>
9.24

$$$$
>  <molecule>
O=C(Nc1cccc(Cl)c1)NC1C(=O)N(c2ccccc2)c2ccccc2N(C2CC3CCC2C3)C1=O (stereo unspecified)

>  <system-tested>
Gastrin/cholecystokinin type B receptor (Cavia porcellus)

>  <pKi>
8.77

$$$$
>  <molecule>
O=C(Nc1cccc(C2N=NN=N2)c1)NC1C(=O)N(CCC2CCCC2)c2ccccc2N(c2ccccc2F)C1=O (stereo unspecified)

>  <system-tested>
Gastrin/cholecystokinin type B receptor (Cavia porcellus)

>  <pKi>
9.65

$$$$
>  <molecule>
O=C(Nc1cccc(C(=O)O)c1)NC1C(=O)N(CC23C[C@H]4C[C@@H](C2)C[C@@H](C3)C4)c2ccccc2N(c2ccccc2)C1=O (stereo partly specified)

>  <system-tested>
Gastrin/cholecystokinin type B receptor (Cavia porcellus)

>  <pKi>
9.01

$$$$
>  <molecule>
O=Cc1cccc(NC(=O)NC2C(=O)N(CC34C[C@H]5C[C@@H](C3)C[C@@H](C4)C5)c3ccccc3N(c3ccccc3)C2=O)c1 (stereo partly specified)

>  <system-tested>
Gastrin/cholecystokinin type B receptor (Cavia porcellus)

>  <pKi>
9.02

$$$$

Batch request: pKi per item, same order as input.
1. CCOC(=O)c1cccc(NC(=O)NC2C(=O)N(CC34C[C@H]5C[C@@H](C3)C[C@@H](C4)C5)c3ccccc3N(c3ccccc3)C2=O)c1 (stereo partly specified)
2. CN(C)c1cccc(NC(=O)NC2C(=O)N(CCC3CCCC3)c3ccccc3N(c3ccccc3F)C2=O)c1 (stereo unspecified)
3. CC(C)(C)CCN1C(=O)C(NC(=O)Nc2ccccc2)C(=O)N(c2ccccc2)c2ccccc21 (stereo unspecified)
4. CC(C)(C)CCN1C(=O)C(NC(=O)Nc2ccccc2)C(=O)N(c2ccccc2F)c2ccccc21 (stereo unspecified)
5. O=C(Nc1ccccc1)NC1C(=O)N(CCc2ccccc2)c2ccccc2N(c2ccccc2)C1=O (stereo unspecified)
6. O=C(Nc1ccc(O)cc1)NC1C(=O)N(CC23C[C@H]4C[C@@H](C2)C[C@@H](C3)C4)c2ccccc2N(c2ccccc2)C1=O (stereo partly specified)

Response given:
8.52
9.17
9.17
9.02
8.08
9.18
